# PROCEDURE_TEXT: Asymmetry factors
# Parameters: species or system rat
# SETTINGS: out from brainECF at BBB; calculated from Kp,uu,brainECF
QUANTITY_NAME: AFout1, asymmetry factor
Write no unit; give the number alone.

Reference set, count: 3
O=C1NC(=O)C(c2ccccc2)(c2ccccc2)N1
4.2
Cc1nc2n(c(=O)c1CCN1CCC(c3noc4cc(F)ccc34)CC1)CCCC2O (stereo not shown)
3.0
CCN1CCC[C@H]1CNC(=O)c1c(O)c(Cl)cc(Cl)c1OC [Raclopride]
1.4

Query :: Given the entry Cc1nc2n(c(=O)c1CCN1CCC(c3noc4cc(F)ccc34)CC1)CCCC2 , report its measured AFout1, asymmetry factor.
Result :: 1.3

====

# PROCEDURE_TEXT: Free fraction in brain
# Type: in vitro ADME
# SETTINGS: rat
QUANTITY_NAME: fraction unbound
Form rule: numeric answer, no unit written next to it.

Query :: Reported fraction unbound for Cc1nc2n(c(=O)c1CCN1CCC(c3noc4cc(F)ccc34)CC1)CCCC2O (stereo not shown) [Paliperidone] : what is it?
Result :: 0.065

====

This listing pairs molecules with measured clearance.
# PROCEDURE_TEXT: Empirical plasma PK model
# Assay type: in vivo, rat
# SETTINGS: rat, plasma, iv
Just the number in mL/min, nothing appended.

Query :: Endpoint output: clearance of CN(Cc1cnc2nc(N)nc(N)c2n1)c1ccc(C(=O)N[C@@H](CCC(=O)O)C(=O)O)cc1 [Methotrexate] . Value?
Result :: 8.04

Query :: Try Cc1nc2n(c(=O)c1CCN1CCC(c3noc4cc(F)ccc34)CC1)CCCC2 next.
Result :: 886

====

# PROCEDURE_TEXT: Asymmetry factors
# Set-up: species or system rat
# SETTINGS: out from CSFLV at BCSFB1; calculated from Kp,uu,CSFLV
Measured AFout2, asymmetry factor by item
# output: bare number, no unit

Example compounds with recorded AFout2, asymmetry factor:
Cc1nc2n(c(=O)c1CCN1CCC(c3noc4cc(F)ccc34)CC1)CCCC2 [Risperidone]
1.3
CCN1CCC[C@H]1CNC(=O)c1c(O)c(Cl)cc(Cl)c1OC [Raclopride]
1.1
Cc1nc2n(c(=O)c1CCN1CCC(c3noc4cc(F)ccc34)CC1)CCCC2O (stereo not shown) [Paliperidone]
3.7

Query :: Recorded AFout2, asymmetry factor of O=C1NC(=O)C(c2ccccc2)(c2ccccc2)N1 [Phenytoin] , please.
Result :: 7.6

====

# PROCEDURE_TEXT: Empirical plasma PK model
# Format: in vivo, rat
# SETTINGS: rat plasma PK model; parameter estimate (RSE, %)
QUANTITY_NAME: VPL, distribution volume of the central compartment

// known answers, use as guide
CC(=O)Nc1ccc(O)cc1
49.5 (59.0) mL
CCN1CCC[C@H]1CNC(=O)c1c(OC)ccc(Br)c1OC [Remoxipride]
83.7 (18.3) mL

Query compound follows.
Query :: What does the data say about its VPL, distribution volume of the central compartment? Entry: O=C1NC(=O)C(c2ccccc2)(c2ccccc2)N1
Result :: 943 (21.5) mL

====

# PROCEDURE_TEXT: Empirical plasma PK model
# Format: in vivo, rat
# SETTINGS: rat plasma PK model; parameter estimate (RSE, %)
Listed here: items and their measured VPL, distribution volume of the central compartment.

Some compounds with known VPL, distribution volume of the central compartment results, for comparison:
Cc1nc2n(c(=O)c1CCN1CCC(c3noc4cc(F)ccc34)CC1)CCCC2
43,100 (28.1) mL
Cc1nc2n(c(=O)c1CCN1CCC(c3noc4cc(F)ccc34)CC1)CCCC2O (stereo not shown)
26,400 (12.6) mL
CN(Cc1cnc2nc(N)nc(N)c2n1)c1ccc(C(=O)N[C@@H](CCC(=O)O)C(=O)O)cc1 [Methotrexate]
28.0 (55.0) mL

Now consider a different compound.
Query :: // lookup VPL, distribution volume of the central compartment for CCN1CCC[C@H]1CNC(=O)c1c(O)c(Cl)cc(Cl)c1OC [Raclopride]
Result :: 48.9 (16.3) mL
